tested on: Schistosoma mansoni; assay: Antischistosomal activity against Schistosoma mansoni cercariae infected in NMRI mouse assessed as worm burden reduction at 100 mg/kg, po administered as single dose on day 49 of post infection and measured on day 21 of post treatment relative to control; assay type: functional; set-up: scale not given: the % may be the effect or the level left
Item-by-item account of Activity

Look over these answered cases.
O=C(O)CNC(=O)Nc1ccc(F)c(C(F)(F)F)c1 :: 49%
O=C(Nc1ccc(F)c(C(F)(F)F)c1)NC1(C(=O)O)CCC1 :: 21%
CC(C)(NC(=O)Cc1ccc(F)c(C(F)(F)F)c1)C(=O)O :: 0%
CC(C)(C(=O)O)N1CCCN(c2ccc(F)c(C(F)(F)F)c2)C1=O :: 14%

Input line: Specify measured Activity for `CCOC(=O)C(C)(C)NC(=O)Nc1ccc(F)c(C(F)(F)F)c1` .
Output line: 70%

Input line: Specify measured Activity for O=C(C1CCCCC1)N1CC(=O)N2CCc3ccccc3C2C1 (configuration not stated) .
Output line: 15%

Input line: Specify measured Activity for `CC(C)(CC(=O)Nc1ccc(F)c(C(F)(F)F)c1)C(=O)O` .
Output line: 42%

###

test: Kinetic solubility of compound in pH 6.5 phosphate buffer at 10 mg/ml by nephelometry; format: physicochemical; conditions: read-out: Kinetic_solubility
Item-by-item account of solubility kinetic

CC(C)(C(=O)O)N1CCCN(c2ccc(F)c(C(F)(F)F)c2)C1=O :: > 100 µg/mL
CC(C)(C(=O)O)n1c(=O)[nH]c2cc(C(F)(F)F)c(F)cc21 :: > 100 µg/mL
CC(C)(NC(=O)Nc1ccccc1)C(=O)O :: 50 to 100 µg/mL

Input line: Specify measured solubility kinetic for `CCOC(=O)C(C)(C)NC(=O)Nc1ccc(F)c(C(F)(F)F)c1` .
Output line: 3.1 to 6.3 µg/mL

Input line: Specify measured solubility kinetic for `O=C(Nc1ccc(F)c(C(F)(F)F)c1)NC1(C(=O)O)CCC1` .
Output line: > 100 µg/mL

Input line: Specify measured solubility kinetic for `O=C(O)CNC(=O)Nc1ccc(F)c(C(F)(F)F)c1` .
Output line: > 100 µg/mL

Input line: Specify measured solubility kinetic for `CC(C)(NC(=O)Cc1ccc(F)c(C(F)(F)F)c1)C(=O)O` .
Output line: 25 to 50 µg/mL

Input line: Specify measured solubility kinetic for `O=C(Nc1ccc(F)c(C(F)(F)F)c1)NC1(C(=O)O)CC1` .
Output line: > 100 µg/mL

###

tested on: L6; assay: Cytotoxicity against rat L6 cells up to 200 uM; assay type: cell-based
Observable: Activity

Look over these answered cases.
CC(C)(C(=O)O)n1c(=O)[nH]c2cc(C(F)(F)F)c(F)cc21 :: Non-Toxic
CC(C)(C(=O)O)N1CCCN(c2ccc(F)c(C(F)(F)F)c2)C1=O :: Non-Toxic
O=C(Nc1ccc(F)c(C(F)(F)F)c1)NC1(C(=O)O)CCC1 :: Non-Toxic
CC(C)(NC(=O)Nc1ccccc1)C(=O)O :: Non-Toxic

For the next question, use this compound.
Input line: Specify measured Activity for `CC(C)(CC(=O)Nc1ccc(F)c(C(F)(F)F)c1)C(=O)O` .
Output line: Non-Toxic

###

tested on: Schistosoma mansoni; test: Antischistosomal activity against Schistosoma mansoni cercariae infected in NMRI mouse assessed as worm burden reduction at 100 mg/kg, po administered as single dose on day 49 of post infection and measured on day 21 of post treatment relative to control; type: functional; set-up: scale not given: the % may be the effect or the level left
Observable: Activity (%)
Reply with just the number (in %).

Input line: Specify measured Activity for `O=C(Nc1ccc(F)c(C(F)(F)F)c1)NC1(C(=O)O)CC1` .
Output line: 4

###

Item-by-item account of solubility kinetic
experiment: Kinetic solubility of compound in pH 6.5 phosphate buffer at 10 mg/ml by nephelometry; type: physicochemical; details: read-out: Kinetic_solubility

CC(C)(C(=O)O)N1Cc2cc(F)c(C(F)(F)F)cc2NC1=O :: > 100 µg/mL
CC(C)(NC(=O)Nc1ccc(F)c(C(F)(F)F)c1)C(N)=O :: 50 to 100 µg/mL
CC(C)(NC(=O)Nc1ccc(F)c(C(F)(F)F)c1)C(=O)O :: > 100 µg/mL

For the next question, use this compound.
Input line: Specify measured solubility kinetic for `CC(C)(CC(=O)Nc1ccc(F)c(C(F)(F)F)c1)C(=O)O` .
Output line: 25 to 50 µg/mL

###

system: Schistosoma mansoni; assay: Antischistosomal activity against Schistosoma mansoni cercariae infected in NMRI mouse assessed as worm burden reduction at 100 mg/kg, po administered as single dose on day 49 of post infection and measured on day 21 of post treatment relative to control; assay type: functional; design: scale not given: the % may be the effect or the level left
Item-by-item account of Activity
Reply with just the number (in %).

Look over these answered cases.
CC(C)(NC(=O)Nc1ccccc1)C(=O)O :: 20
CC(C)(C(=O)O)N1Cc2cc(F)c(C(F)(F)F)cc2NC1=O :: 0
CC(C)(C(=O)O)n1c(=O)[nH]c2cc(C(F)(F)F)c(F)cc21 :: 0

For the next question, use this compound.
Input line: Specify measured Activity for `CC(C)(NC(=O)Nc1ccc(F)c(C(F)(F)F)c1)C(N)=O` .
Output line: 38
